These entries and their values trace back to the supplement of paper PMC10065799.

Target: Jak2 (UniProt O60674)
Sequence (O60674 whole entry, looked up): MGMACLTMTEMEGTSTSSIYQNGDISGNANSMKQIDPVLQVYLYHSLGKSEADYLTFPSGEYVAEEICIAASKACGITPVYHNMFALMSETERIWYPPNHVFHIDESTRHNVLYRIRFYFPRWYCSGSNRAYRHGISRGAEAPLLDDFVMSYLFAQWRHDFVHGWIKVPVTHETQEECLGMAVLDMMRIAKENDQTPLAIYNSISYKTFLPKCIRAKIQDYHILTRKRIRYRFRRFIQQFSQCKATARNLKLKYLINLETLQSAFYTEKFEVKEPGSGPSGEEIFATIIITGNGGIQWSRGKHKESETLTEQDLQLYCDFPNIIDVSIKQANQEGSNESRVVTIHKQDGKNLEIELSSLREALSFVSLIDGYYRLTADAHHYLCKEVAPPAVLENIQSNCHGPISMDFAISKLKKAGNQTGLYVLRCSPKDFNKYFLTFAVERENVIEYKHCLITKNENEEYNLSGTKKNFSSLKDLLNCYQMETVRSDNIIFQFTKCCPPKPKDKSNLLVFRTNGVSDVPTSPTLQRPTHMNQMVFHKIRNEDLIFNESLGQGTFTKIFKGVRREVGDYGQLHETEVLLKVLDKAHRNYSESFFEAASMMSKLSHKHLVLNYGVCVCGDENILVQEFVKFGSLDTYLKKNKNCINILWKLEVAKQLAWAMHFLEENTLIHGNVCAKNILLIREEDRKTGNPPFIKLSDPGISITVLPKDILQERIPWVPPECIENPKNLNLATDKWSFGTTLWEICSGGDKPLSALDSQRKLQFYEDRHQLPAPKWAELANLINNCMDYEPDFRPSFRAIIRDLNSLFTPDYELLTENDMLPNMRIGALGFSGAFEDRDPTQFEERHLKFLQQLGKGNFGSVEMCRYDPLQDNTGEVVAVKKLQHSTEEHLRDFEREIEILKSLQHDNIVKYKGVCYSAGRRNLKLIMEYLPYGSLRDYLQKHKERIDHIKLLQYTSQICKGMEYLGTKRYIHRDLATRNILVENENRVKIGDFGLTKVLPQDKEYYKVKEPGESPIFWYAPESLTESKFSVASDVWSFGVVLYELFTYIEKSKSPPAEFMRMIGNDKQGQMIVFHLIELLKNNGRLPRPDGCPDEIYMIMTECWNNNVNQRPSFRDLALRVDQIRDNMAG
Test: phosphorylation enrichment, bacterial display (enrichment ratio); higher = better substrate or ligand; peptides without Tyr show the background
measured_metric: phosphorylation enrichment
Lab note: write the figure by itself, no unit.

1. ALVDTYCRHNF [HLA-DRB1_Y107_A103L_YF] = 0.847
2. AHAGEYGAEAL [HBA1_Y25] = 0.66
3. VGEGPYLISDL [ABCC12_Y7] = 1.05
4. TFEFRYLEDQD [CNOT3_Y746_R750Q_YF] = 1.92
5. MSGDVYSTDFF [NTRK2_Y702_R699G_YF] = 0.959
6. DPEAAYTTRGG [EPHA3_Y779] = 0.652
7. KTGDFYDLFGG [PTPN11_Y63_N58K_YF] = 0.781
8. SLQSEYVHFGG [CDC14A_Y591_YF] = 0.875

// query phosphorylation enrichment value for entry PRQRRYVFFFS [PTEN_Y174_S170R_YF] 0.262

Another sequence: QFFQGYFNNNF [ZNF236_Y644_S643G] 1.55

Repeat for the following sequence: AKRKNYAPVTM [CFAP47_Y557_A561T] 0.351

Now consider PLLEYYWDIFT [CDAN1_Y713_R714W] . 2.65

Then what about the sequence HAVEDYQAIVD [CCT7_Y263_T259A] ? 1.25

// same read-out, input: KLQKYYRQNPD [EHHADH_Y683] 0.474

====

Target: EPHB2 (UniProt P29323)
Sequence (P29323 whole entry, looked up): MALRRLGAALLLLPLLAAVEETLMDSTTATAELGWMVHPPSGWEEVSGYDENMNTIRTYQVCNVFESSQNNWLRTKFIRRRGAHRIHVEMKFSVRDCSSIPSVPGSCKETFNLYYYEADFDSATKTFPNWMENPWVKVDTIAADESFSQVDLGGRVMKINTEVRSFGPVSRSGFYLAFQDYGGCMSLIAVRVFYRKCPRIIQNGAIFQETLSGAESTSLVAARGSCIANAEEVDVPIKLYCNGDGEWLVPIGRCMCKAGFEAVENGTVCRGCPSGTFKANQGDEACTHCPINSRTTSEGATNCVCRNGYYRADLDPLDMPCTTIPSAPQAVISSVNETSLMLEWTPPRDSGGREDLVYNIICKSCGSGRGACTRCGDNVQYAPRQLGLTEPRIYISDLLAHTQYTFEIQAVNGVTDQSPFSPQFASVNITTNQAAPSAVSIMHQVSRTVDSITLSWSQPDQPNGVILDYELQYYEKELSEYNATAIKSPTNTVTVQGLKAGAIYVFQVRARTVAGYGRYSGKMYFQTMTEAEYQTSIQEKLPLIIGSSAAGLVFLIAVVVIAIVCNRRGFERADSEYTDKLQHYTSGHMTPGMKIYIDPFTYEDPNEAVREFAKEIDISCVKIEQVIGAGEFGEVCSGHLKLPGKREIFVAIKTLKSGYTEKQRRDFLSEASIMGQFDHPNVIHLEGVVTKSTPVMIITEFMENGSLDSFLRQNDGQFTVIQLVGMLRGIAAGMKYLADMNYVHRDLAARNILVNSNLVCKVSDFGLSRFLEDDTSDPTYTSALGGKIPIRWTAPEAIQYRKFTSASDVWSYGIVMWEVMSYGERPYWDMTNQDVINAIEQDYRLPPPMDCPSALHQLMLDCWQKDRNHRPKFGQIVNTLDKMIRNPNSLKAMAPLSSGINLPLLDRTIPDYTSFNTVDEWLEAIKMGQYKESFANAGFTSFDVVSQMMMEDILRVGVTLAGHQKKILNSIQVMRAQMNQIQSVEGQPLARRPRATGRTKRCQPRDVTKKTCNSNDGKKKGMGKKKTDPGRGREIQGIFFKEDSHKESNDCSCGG
Experiment: phosphorylation enrichment, bacterial display (enrichment ratio); higher = better substrate or ligand; peptides without Tyr show the background
In this section we review reported phosphorylation enrichment values for a set of sequences.
Just the number, please, no unit after it.

The following sequences have reported results that may help.
1. GTSLIYWILFT [G6PC3_Y214_T216I] = 0.749
2. EKIANYKEGTF [CLRN1_Y171_YF] = 0.474
3. SRASYYRKGGC [ALK_Y1283_Y1278S] = 0.371
4. FSAPNCCFRCG [PPP2CA_Y265_Y265C_YF] = 0.461
5. CQAHGYFCQPI [STK11_Y156_L160P] = 0.436
6. IEDPYYGNDSD [ACP1_Y133] = 0.809
7. FSAPNYCFRCG [PPP2CA_Y265_YF] = 0.448
8. RENGPYYTSYP [GDAP2_Y487] = 1.45

Now look at this entry.
Name the recorded phosphorylation enrichment for SENFTYIWWLN [PSG4_Y271_K267E_YF] . 0.771

====

Molecular target: FGFR1 (UniProt P11362)
Sequence (P11362 whole entry, looked up): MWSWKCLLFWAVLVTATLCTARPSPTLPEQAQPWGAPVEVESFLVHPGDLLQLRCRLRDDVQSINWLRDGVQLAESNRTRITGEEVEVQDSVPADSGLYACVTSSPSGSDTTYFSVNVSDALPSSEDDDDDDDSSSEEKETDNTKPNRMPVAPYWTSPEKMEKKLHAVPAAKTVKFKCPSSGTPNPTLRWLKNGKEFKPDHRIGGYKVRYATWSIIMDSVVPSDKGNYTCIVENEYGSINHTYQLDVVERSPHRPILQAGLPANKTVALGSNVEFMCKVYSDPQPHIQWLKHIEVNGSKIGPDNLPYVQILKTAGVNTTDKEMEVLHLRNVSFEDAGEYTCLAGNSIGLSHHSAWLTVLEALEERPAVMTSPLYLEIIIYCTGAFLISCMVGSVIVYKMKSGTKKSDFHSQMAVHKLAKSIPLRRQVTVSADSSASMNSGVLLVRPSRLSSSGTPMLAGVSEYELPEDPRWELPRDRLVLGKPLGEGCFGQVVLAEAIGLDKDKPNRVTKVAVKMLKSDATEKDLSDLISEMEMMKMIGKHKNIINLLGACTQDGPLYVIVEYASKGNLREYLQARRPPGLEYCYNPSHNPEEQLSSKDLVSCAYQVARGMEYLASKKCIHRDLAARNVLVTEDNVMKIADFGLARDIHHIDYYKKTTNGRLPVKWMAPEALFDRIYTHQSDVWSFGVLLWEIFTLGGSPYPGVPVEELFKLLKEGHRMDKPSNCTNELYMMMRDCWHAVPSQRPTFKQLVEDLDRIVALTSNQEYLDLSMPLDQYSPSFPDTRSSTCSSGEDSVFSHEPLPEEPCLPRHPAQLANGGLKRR
Experiment: phosphorylation enrichment, bacterial display (enrichment ratio); higher = better substrate or ligand; peptides without Tyr show the background
Threshold check on phosphorylation enrichment: at or above 0.5 gives Met, strictly below gives Not met.

Completed entries (count: 5):
1. DENWFYTRAAF [RPS19_Y54_S59F] = Met
2. RQAQAYRGQRV [TSHR_Y706] = Met
3. QEIATCRRLLE [KRT14_Y415_Y415C] = Met
4. RKQQLYTAMEE [CCDC39_Y593] = Not met
5. EGTGHYLCNAC [GATA5_Y208_D203E] = Not met

Textbook exercise: given the entry TGILLHGLASR [QARS1_Y57_Y57H] , state whether its phosphorylation enrichment is greater than or equal to 0.5. Not met

Entry SKNSKYNAEST [PSEN1_Y315] please Not met

Try the sequence LSSVSYVGCSL [ADGRD1_Y571_I569V] Met

Check RHSGSYLVTSV [APC_Y2838] too. Not met

====

Molecular target: EPHB1 (UniProt P54762)
Sequence (P54762 whole entry, looked up): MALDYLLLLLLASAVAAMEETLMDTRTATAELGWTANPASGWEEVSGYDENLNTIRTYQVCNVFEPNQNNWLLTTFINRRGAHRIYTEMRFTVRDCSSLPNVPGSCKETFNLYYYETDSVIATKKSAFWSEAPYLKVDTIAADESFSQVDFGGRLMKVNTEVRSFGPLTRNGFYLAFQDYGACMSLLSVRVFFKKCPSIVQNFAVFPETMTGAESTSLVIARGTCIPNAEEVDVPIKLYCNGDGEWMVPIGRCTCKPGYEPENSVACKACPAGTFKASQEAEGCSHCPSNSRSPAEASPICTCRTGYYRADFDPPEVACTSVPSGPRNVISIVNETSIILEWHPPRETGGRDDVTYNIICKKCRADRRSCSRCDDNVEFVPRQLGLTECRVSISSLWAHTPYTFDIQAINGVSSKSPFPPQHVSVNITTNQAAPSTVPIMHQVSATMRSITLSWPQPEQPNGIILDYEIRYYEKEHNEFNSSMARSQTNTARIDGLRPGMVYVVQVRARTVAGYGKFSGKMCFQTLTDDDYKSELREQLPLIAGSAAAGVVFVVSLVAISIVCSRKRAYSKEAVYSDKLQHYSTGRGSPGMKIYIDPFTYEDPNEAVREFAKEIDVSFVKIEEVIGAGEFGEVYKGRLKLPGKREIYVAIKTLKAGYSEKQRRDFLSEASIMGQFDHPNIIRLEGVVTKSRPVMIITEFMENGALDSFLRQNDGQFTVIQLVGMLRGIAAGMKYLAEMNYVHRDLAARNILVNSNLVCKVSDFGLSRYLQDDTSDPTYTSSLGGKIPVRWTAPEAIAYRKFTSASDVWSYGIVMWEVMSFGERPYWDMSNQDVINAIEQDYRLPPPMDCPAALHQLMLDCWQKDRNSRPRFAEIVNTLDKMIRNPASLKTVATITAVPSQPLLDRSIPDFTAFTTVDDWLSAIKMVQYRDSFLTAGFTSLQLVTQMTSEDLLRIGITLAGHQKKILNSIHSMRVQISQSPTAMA
Experiment: phosphorylation enrichment, bacterial display (enrichment ratio); higher = better substrate or ligand; peptides without Tyr show the background
phosphorylation enrichment listing for selected sequences.
Output: the number by itself.

1. KRISCYEARFQ [PFKFB3_Y194_S197R_YF] = 0.398
2. GSETPYVDRTP [ESS2_Y335] = 0.408

Next sequence, please.
If you can, please state the reported phosphorylation enrichment value of LRRFIYRPPDQ [OTOF_Y1231_R1236Q] . 0.409

====

System: AncSZ
Assay: phosphorylation enrichment, bacterial display (enrichment ratio); higher = better substrate or ligand; peptides without Tyr show the background
Let's look at some sequences and their measured phosphorylation enrichment.
Please state the value as a number alone, without comment.

1. GVRTIYTIDGS [DCLK2_Y124] = 0.803
2. KSIQLYDTPYE [SHB_Y297_G293S] = 1.29
3. DSFATYFRRVL [H2BW1_Y84] = 1.35

Kindly consider the entry below.
Please look up its phosphorylation enrichment: RLCQDYDTIGP [ANK1_Y1073] 1.88

====

Reported phosphorylation enrichment values are given for each entry in this list.
Target: FGFR1 (UniProt P11362)
Assay: phosphorylation enrichment, bacterial display (enrichment ratio); higher = better substrate or ligand; peptides without Tyr show the background
The response must contain the number and no unit.

1. KEINDYVEKGT [SERPINA1_Y184_Q180E] = 0.558

Would you kindly look at the next entry?
Can you share its phosphorylation enrichment? I mean this sequence: LRTAVHHEILI [CREBBP_Y1450_Y1450H] 0.963

====

Quick reference for phosphorylation enrichment among some sequences
System: c-Abl (mouse)
Assay: phosphorylation enrichment, bacterial display (enrichment ratio); higher = better substrate or ligand; peptides without Tyr show the background
I only need the number, thanks.

Worked set:
1) VNFGAYINDFN [GLB1_Y488_K493N_YF] = 0.788
2) LENSTYQFIHV [CRB1_Y760_R764H_YF] = 1.56
3) RIRRRYCQVLN [IQCF1_Y144] = 0.455
4) KSAAIYNPVIF [RHO_Y301_YF] = 1.11
5) CKLYQYYLDHL [ATRX_Y1849] = 1.17
6) GHEFIYVDPMQ [PDGFRA_Y574_YF] = 6.67
7) NTPNTYLRVNV [ADD2_Y440] = 0.587
8) FQKNIYSEEPR [LMNA_Y211_L215P] = 0.477
9) THLARYSDELR [APOA1_Y190_P189R] = 0.405
10) VIVRMYDYHVL [RPF2_Y109_G106V] = 0.746

Provide value of phosphorylation enrichment for this record tested with c-Abl (mouse): TDLAFYLVREG [ASL_Y376_K380E_YF] 0.85

====

Biological target: EPHB1 (UniProt P54762)
Assay: phosphorylation enrichment, bacterial display (enrichment ratio); higher = better substrate or ligand; peptides without Tyr show the background
measured_metric: phosphorylation enrichment
Reply with just the number.

1) FSAPNYCFRCG [PPP2CA_Y265_YF] = 0.397
2) TMETKYDNISR [SETDB2_Y477_V473M] = 0.356
3) PAEPRYRARQR [KCNJ11_Y26] = 0.635

Need phosphorylation enrichment, item CEHRGHLFLAI [TEK_Y897_Y897H_YF] 0.625

Then CSEEMYCLMLQ [RET_Y981_R982C] ? 1.02

Also need KEINDYVEKGT [SERPINA1_Y184_Q180E] , thanks. 0.513

What do you get for GLSDLYVKIHL [SYT2_Y309_P308L] ? 0.826

Try VGGRIYTDDGL [PKLR_Y218_I219T] next. 0.412

====

// values below are reported phosphorylation enrichment
Target: FGFR3 (UniProt P22607)
Sequence (P22607 whole entry, looked up): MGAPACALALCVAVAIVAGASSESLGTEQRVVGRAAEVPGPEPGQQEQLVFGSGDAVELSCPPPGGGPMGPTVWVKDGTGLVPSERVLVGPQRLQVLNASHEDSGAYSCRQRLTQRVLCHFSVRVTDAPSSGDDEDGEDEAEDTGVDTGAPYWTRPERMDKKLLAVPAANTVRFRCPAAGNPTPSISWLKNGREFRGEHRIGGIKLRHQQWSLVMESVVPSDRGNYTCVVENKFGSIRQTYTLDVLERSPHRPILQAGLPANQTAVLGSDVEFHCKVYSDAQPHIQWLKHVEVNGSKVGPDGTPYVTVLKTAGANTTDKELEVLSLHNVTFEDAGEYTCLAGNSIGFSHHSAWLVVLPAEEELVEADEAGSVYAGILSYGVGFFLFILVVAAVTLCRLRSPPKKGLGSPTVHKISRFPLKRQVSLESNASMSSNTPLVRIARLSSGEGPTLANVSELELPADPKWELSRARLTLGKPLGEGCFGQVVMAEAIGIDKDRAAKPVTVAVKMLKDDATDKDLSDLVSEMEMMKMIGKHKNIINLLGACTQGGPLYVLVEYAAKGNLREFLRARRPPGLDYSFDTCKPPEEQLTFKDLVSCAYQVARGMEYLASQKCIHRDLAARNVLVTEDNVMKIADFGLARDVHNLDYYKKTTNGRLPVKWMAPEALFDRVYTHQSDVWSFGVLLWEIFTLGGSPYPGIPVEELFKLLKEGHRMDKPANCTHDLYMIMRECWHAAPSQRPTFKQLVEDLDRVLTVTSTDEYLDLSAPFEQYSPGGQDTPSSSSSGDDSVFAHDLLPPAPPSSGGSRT
Test: phosphorylation enrichment, bacterial display (enrichment ratio); higher = better substrate or ligand; peptides without Tyr show the background
// return just the number, without any unit appended

In the examples that follow, each entry is paired with its recorded phosphorylation enrichment.
1. LLINKYGLSAH [SCP2_Y151] = 0.708
2. SVVVPYEPHEV [TP53_Y220_P223H] = 0.835
3. SSSAIYDNPNL [DCP1B_Y191] = 0.457

Name the recorded phosphorylation enrichment for VMTSKYRGGGG [HBA1_Y141_L137M] . 0.467

Can you check SLQSEYVHYGG [CDC14A_Y591] next? 0.95

Now give it for CTTVHYNYMCN [TP53_Y234_I232V] too. 0.622

Now consider DRTVHYVDEKG [IFT140_Y216_G212R] . 0.515

Also VPTSKYRGGGG [HBA1_Y141_L137P] ? 0.349

What do you get for AFRRGYFDEEM [PLEC_Y2971_YF] ? 0.673

Further, for VQDPAYLRDIN [OPRK1_Y369_D374N] ? 0.623

====

Biological target: c-Src SH2;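 further: peptide library displayed on the E. coli surface as eCPX fusions, selected cells deep-sequenced, score is each peptide's frequency after selection divided by its frequency in the input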
Experiment: SH2 binding enrichment of the phosphorylated peptide, bacterial display (enrichment ratio); higher = better substrate or ligand; peptides without Tyr show the background
measured_metric: SH2 binding enrichment

Study these solved cases before continuing.
1) VPLATYMQIYK [RPL21_Y30_R32Q] = 0.73
2) MSSHHYDYKKY [ZNF445_Y428] = 0.64
3) CSTIHYNFMCN [TP53_Y234_T230S_YF] = 2.44
4) FLAVGYHKPYI [IDS_Y225_H229Y] = 1.51
5) RCKNHYAAFSV [C1QTNF1_Y145_S143N] = 1.67

Query (sequence): YGMQLYQNYMH [GRB14_Y347] ; field requested: SH2 binding enrichment 1.6
